Source listed as the supplement of paper PMC6757056.

B1: library; a variant is named by its letters at N, in order (parent)
chain: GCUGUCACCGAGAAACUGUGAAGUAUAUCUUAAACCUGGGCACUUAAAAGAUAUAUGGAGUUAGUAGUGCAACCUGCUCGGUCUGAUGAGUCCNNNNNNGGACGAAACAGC

Variants of: B1
PROCEDURE DETAILS: normalized RNA/DNA level without ligand (relative to sTRSVctl = 100) (log10 (% of sTRSVctl)); HEK293T; ligand: cyclic di-GMP (c-di-GMP-II aptamer); higher = less ribozyme self-cleavage, higher mRNA level
RUN CONDITIONS: reporter: mCherry (pCS4076), ligand present: no
ENDPOINT NAME: normalized RNA/DNA level without ligand (log10)
Please state the value as a number alone, without comment.

Sample GGACCC — what was its normalized RNA/DNA level without ligand (log10)?
1.86

Query ACCCGU next
1.73

Please give the result for CACGGA too.
1.48

Repeat for the following variant: CCGCUU
1.56

CUACCC ?
1.76

Another variant to look at: GCCAUG
1.59

Subsequent entry: AGCCGU
1.58

# repeat for GUAGAC
1.6

Could you do the same for CACGAU , please?
1.68

Record: UCUUAU
1.68

More entries:
Looking for the measured normalized RNA/DNA level without ligand (log10) of CUCACG , can you help?
1.78

Let us now turn to GCCGGU
1.63

// same read-out, input: CAUGUA
1.44

Likewise for UAUUCA ?
1.8

Could you do the same for AGGCAA , please?
1.45

Consider next the variant GAAUGC in the same way.
1.63
